- test.system: PARP (Homo sapiens, UniProt P09874)
- Sequence (P09874 whole entry): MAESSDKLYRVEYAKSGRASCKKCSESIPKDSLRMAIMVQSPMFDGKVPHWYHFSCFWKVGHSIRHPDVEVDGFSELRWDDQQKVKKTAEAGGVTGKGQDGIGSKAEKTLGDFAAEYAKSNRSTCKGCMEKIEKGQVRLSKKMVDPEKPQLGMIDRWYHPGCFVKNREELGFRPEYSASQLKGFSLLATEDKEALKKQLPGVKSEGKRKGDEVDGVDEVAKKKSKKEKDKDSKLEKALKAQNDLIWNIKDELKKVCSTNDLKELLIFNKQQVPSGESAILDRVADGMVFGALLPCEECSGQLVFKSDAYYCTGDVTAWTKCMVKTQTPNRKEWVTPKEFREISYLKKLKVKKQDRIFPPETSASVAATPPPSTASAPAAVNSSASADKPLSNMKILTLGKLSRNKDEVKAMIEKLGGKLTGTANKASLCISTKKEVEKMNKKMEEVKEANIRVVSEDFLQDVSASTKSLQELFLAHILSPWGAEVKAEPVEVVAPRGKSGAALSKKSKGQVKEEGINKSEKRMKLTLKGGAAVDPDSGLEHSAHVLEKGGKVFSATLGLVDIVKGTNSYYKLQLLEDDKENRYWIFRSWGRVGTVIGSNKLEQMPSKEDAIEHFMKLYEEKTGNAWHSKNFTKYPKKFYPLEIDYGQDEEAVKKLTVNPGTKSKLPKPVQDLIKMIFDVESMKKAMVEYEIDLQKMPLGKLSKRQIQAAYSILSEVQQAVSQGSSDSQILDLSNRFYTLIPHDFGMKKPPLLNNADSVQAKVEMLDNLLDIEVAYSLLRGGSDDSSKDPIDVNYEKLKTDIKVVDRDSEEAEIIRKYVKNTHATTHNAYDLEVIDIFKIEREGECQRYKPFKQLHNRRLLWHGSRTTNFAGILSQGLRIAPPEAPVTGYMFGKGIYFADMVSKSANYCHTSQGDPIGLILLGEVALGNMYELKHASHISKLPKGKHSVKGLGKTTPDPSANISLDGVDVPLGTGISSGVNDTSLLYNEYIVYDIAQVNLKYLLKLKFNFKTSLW
Property: IC50; scope: individual molecules

molecule="Cc1ccnc(-c2ccc(N3CCN(Cc4cnc5c(c4)NC(=O)[C@@H]4CCCCN54)CC3)cc2)c1 [Compound 166]" parameter=IC50 endpoint_result="15.8 to 39.8 nM"
molecule="N#Cc1ccc(N2CCN(Cc3cnc4c(c3)NC(=O)[C@@H]3CCCN43)CC2)cc1 [Compound 4]" parameter=IC50 endpoint_result="15.8 to 39.8 nM"
molecule="O=C1Nc2cc(CN3CCN(c4ccc(Cl)cc4)CC3)cnc2N2CCCCC12 (centres unmarked) [Compound 66]" parameter=IC50 endpoint_result="15.8 to 39.8 nM"
molecule="O=C1Nc2cc(CN3CC=C(c4ccc(Cl)cc4)CC3)cnc2N2CCSCC12 (centres unmarked) [Compound 86]" parameter=IC50 endpoint_result="15.8 to 39.8 nM"
molecule="COc1cc(C#N)ccc1N1CCN(Cc2cnc3c(c2)NC(=O)[C@@H]2CCCCN32)CC1 [Compound 118]" parameter=IC50 endpoint_result="≤ 12.6 nM"
molecule="Cc1ccsc1-c1ccc(N2CCN(Cc3cnc4c(c3)NC(=O)[C@@H]3CCCCN43)CC2)cc1 [Compound 162]" parameter=IC50 endpoint_result="≥ 50.1 nM"
molecule="O=C1Nc2cc(CN3CCN(c4ccc(Cl)cc4)CC3)cnc2N2CCCC[C@@H]12 [Compound 69]" parameter=IC50 endpoint_result="≤ 12.6 nM"

Now examine the next entry.
Q. What does the data say about its IC50? Entry: CCNC(=O)c1ccc(N2CCN(Cc3cnc4c(c3)NC(=O)[C@@H]3CCCCN43)CC2)c(F)c1 [Compound 109]
A. 15.8 to 39.8 nM
